Where do the numbers come from? From paper PMC10127221.

# Study target: MettL3–MettL14 (Homo sapiens)
# Sequence (Q86U44 whole entry): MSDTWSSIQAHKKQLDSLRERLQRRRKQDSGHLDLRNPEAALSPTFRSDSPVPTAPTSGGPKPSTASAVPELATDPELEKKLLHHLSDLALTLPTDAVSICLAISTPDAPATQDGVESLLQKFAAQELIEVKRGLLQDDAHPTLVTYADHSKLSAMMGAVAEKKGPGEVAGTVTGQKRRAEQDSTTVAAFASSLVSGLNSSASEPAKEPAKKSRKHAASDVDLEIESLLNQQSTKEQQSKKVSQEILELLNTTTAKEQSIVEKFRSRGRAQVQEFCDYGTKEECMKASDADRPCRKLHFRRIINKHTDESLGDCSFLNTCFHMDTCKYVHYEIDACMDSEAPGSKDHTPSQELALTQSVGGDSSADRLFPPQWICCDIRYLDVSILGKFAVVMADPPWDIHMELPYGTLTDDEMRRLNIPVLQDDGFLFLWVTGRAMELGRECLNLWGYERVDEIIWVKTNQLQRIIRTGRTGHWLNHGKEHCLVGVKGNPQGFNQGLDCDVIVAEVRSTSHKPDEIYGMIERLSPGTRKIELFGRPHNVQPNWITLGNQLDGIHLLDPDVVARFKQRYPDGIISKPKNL
# Sequence (Q9HCE5 whole entry partner): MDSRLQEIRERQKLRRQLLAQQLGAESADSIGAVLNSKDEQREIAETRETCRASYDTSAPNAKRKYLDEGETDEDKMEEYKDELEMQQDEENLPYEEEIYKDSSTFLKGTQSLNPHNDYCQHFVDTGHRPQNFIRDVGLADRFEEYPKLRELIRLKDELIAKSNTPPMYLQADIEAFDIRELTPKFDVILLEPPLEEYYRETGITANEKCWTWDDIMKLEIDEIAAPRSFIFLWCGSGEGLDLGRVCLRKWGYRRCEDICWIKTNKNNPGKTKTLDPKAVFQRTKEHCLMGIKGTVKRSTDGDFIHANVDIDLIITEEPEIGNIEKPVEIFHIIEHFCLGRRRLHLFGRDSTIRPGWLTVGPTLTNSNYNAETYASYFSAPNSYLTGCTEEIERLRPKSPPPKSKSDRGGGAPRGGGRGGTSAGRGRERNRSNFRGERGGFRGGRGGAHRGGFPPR
# Experiment: Compound selectivity assay
# Format: biochemical
# Stated conditions: read-out: inhibition of MettL3–MettL14 activity
Property name: inhibition at 10 µM

Molecule	inhibition at 10 µM
OC[C@H]1O[C@@H](n2cnc3c(NCCCc4ccccc4)ncnc32)[C@H](O)[C@@H]1O [compound 7, N6-phenylpropyladenosine]	≤ 50%

Batch: inhibition at 10 µM for all items listed.
1. N=C(NCCSC[C@H]1O[C@@H](n2cnc3c(NCCCc4ccccc4)ncnc32)[C@H](O)[C@@H]1O)NCC1CCCCC1 [11a]
2. N=C(NCCCSC[C@H]1O[C@@H](n2cnc3c(N)ncnc32)[C@H](O)[C@@H]1O)NCC1CCCCC1 [6e]
3. N=C(NCCCSC[C@H]1O[C@@H](n2cnc3c(NCCCc4ccccc4)ncnc32)[C@H](O)[C@@H]1O)NCC1CCCCC1 [11b]

Result:
1: ≤ 50%; 2: ~50%; 3: ≤ 50%
